Test: Inhibition of rat intestinal cellobiase assessed as production of p-nitrophenol by spectrophotometry
ASSAY_ENDPOINT: pIC50
As a rule, pIC50 stands for the negative log10 of the concentration, concentration in M.

q: Tell me its pIC50 given OC[C@H]1CNC[C@@H](O)[C@@H]1O as the entry.
a: 6.52

q: Indicate its recorded pIC50; the molecule in question is OC[C@H]1CNC[C@@H](O)[C@H]1O
a: 5.35

q: Tell us which pIC50 value is on record for OC[C@@H]1NCC[C@@H](O)[C@H]1O
a: 3.09

q: Quickly give me recorded pIC50 for OC[C@H]1NCC[C@H](O)[C@@H]1O
a: 4.41

q: Using known records, supply pIC50 for OC[C@H]1CNC[C@H](O)[C@H]1O
a: 3.04

Continuing:
q: Give pIC50 for the following molecule: OC[C@H]1NC[C@H](O)[C@@H](O)[C@@H]1O
a: 3.49

q: Answer with the recorded pIC50 of OC[C@H]1CNC[C@H](O)[C@@H]1O only.
a: 3.48

q: Using the record for OC[C@@H]1CNC[C@H](O)[C@@H]1O , state its measured pIC50.
a: 3.22

----------
Experiment: Inhibition of rice alpha-glucosidase
Design: species or system Oryza sativa
ASSAY_ENDPOINT: Ki (µM)
Please give a number only; it is taken to be in µM.

q: Entry OCC1(O)CNC[C@H]1O (single isomer, unassigned) needs its Ki filled in; supply it.
a: 4

----------
Target: Tissue alpha-L-fucosidase (Bos taurus, UniProt Q2KIM0)
Sequence (Q2KIM0 whole entry): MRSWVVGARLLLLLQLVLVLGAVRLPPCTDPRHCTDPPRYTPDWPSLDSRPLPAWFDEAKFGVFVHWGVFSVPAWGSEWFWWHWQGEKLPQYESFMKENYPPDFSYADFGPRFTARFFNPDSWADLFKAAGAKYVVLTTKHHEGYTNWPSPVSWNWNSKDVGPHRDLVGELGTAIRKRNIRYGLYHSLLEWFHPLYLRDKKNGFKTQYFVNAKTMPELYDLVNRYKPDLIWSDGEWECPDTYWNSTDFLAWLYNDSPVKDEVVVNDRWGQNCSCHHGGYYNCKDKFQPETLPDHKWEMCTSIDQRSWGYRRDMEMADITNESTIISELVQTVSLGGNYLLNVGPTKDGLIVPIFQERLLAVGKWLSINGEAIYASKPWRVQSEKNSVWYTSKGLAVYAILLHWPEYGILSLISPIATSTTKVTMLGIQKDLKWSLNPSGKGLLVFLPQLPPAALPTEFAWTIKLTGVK
Test: Inhibition of bovine epididymis alpha-L-fucosidase assessed as production of p-nitrophenol by spectrophotometry
ASSAY_ENDPOINT: pIC50
Scale for pIC50: -log10 of concentration given in mol/L; no unit attached.

q: Query pIC50 for OC[C@@H]1NCC[C@@H](O)[C@H]1O
a: 3.59

----------
Target: Lysosomal acid glucosylceramidase (Homo sapiens) (UniProt P04062)
Sequence (whole entry): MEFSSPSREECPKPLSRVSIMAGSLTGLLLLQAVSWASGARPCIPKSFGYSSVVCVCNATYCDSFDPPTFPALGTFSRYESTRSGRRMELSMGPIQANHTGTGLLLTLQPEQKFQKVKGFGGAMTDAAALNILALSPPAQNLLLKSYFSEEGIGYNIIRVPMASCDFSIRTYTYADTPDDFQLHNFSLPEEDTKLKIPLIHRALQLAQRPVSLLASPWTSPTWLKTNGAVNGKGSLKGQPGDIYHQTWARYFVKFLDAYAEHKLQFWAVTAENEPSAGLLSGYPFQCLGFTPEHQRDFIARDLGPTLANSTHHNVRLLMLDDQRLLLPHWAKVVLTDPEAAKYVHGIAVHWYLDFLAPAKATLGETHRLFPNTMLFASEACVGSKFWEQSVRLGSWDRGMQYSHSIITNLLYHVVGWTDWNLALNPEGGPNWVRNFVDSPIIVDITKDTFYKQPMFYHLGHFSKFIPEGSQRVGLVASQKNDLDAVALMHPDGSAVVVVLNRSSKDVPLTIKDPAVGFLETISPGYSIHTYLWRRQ
Conditions: 1000 uM
ASSAY_ENDPOINT: inhibition

q: Supply inhibition measured with Lysosomal acid glucosylceramidase (Homo sapiens) (UniProt P04062) for OC[C@@H]1NCC[C@@H](O)[C@@H]1O .
a: < 50%

q: Param request: inhibition | system Lysosomal acid glucosylceramidase (Homo sapiens) (UniProt P04062) | item OC[C@@H]1NCC[C@H](O)[C@H]1O
a: < 50%

q: // output inhibition; input OC[C@@H]1CNC[C@@H](O)[C@@H]1O ; system Lysosomal acid glucosylceramidase (Homo sapiens) (UniProt P04062)
a: < 50%

Next:
q: Quote inhibition with test system Lysosomal acid glucosylceramidase (Homo sapiens) (UniProt P04062) for OC[C@H]1CNC[C@H](O)[C@H]1O
a: < 50%

q: Jot down inhibition (Lysosomal acid glucosylceramidase (Homo sapiens) (UniProt P04062)) of OC[C@@H]1CNC[C@@H](O)[C@H]1O .
a: < 50%

q: Enter inhibition (test system Lysosomal acid glucosylceramidase (Homo sapiens) (UniProt P04062)) for OC[C@@H]1NCC[C@H](O)[C@@H]1O
a: < 50%

----------
Target: Beta-galactosidase (Bos taurus, UniProt Q58D55)
Sequence (Q58D55 whole entry): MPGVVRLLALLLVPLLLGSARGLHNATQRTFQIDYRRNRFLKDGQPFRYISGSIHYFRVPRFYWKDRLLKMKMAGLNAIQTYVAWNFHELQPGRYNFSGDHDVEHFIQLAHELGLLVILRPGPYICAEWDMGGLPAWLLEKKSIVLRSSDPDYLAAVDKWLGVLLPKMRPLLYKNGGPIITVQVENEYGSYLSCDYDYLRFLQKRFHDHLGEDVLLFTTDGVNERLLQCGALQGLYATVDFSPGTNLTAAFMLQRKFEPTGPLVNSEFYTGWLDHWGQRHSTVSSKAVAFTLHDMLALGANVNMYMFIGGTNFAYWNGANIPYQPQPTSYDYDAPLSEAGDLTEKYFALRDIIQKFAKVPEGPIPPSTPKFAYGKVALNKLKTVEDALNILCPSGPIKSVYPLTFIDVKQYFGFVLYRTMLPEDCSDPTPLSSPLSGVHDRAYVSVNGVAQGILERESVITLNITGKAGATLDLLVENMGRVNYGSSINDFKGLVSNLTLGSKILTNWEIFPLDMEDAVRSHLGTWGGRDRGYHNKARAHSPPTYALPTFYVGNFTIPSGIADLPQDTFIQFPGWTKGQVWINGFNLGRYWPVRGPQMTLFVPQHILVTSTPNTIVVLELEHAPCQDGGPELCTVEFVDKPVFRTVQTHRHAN
Assay: Inhibition of bovine liver beta-galactosidase assessed as production of p-nitrophenol by spectrophotometry
// pIC50 lookup, one value per entry
Scale for pIC50: -log10 of concentration given in mol/L; no unit attached.

Some solved entries appear below for comparison.
q: Supply reported pIC50 belonging to this molecule: OC[C@H]1CNC[C@@H](O)[C@H]1O
a: 4.68

q: Report pIC50 for OC[C@@H]1CNC[C@H](O)[C@H]1O
a: 3.09

q: Give reported pIC50 value for OC[C@@H]1CNC[C@@H](O)[C@@H]1O
a: 3.41

Continue with the molecule presented below.
q: Give the reported pIC50 for this molecule. OC[C@H]1CNC[C@@H](O)[C@@H]1O
a: 5.44

----------
Experiment: Inhibition of rice alpha-glucosidase assessed as production of D-glucose using maltose as substrate after 10 to 30 mins by spectrophotometry
Parameters: species or system Oryza sativa
Listed here: items and their measured pIC50.
Note on units: pIC50 is unitless, being -log10 of a concentration expressed in mol/L.

Examples with answers:
q: For the compound OC[C@H]1NCC[C@H](O)[C@@H]1O , report pIC50.
a: 3.92

q: Retrieve pIC50 measured for OC[C@H]1NC[C@H](O)[C@@H](O)[C@@H]1O [DUVOGLUSTAT] and print it.
a: 7.52

q: State, in one line, measured pIC50 of OC[C@@H]1NCC[C@@H](O)[C@@H]1O
a: 3.01

q: Give reported pIC50 value for OC[C@H]1NCC[C@@H](O)[C@@H]1O [FAGOMINE]
a: 3.49

q: Let me know recorded pIC50 for OC[C@@H]1NCC[C@@H](O)[C@H]1O , thanks.
a: 3.73

Kindly consider the entry below.
q: Please give measured pIC50 of the following entry: OC[C@@H]1NC[C@@H](O)[C@H](O)[C@H]1O
a: 5.37

----------
# inhibition annotations
Species on record: Rattus norvegicus
Details: 1000 uM

Illustrative cases are given below, each with its answer.
q: Give me measured inhibition, please, for this molecule: OC[C@H]1NCC[C@H](O)[C@H]1O
a: < 50%

q: Indicate the recorded inhibition value for this molecule: OC[C@@H]1CNC[C@H](O)[C@H]1O
a: < 50%

q: # return recorded inhibition for input OC[C@H]1CNC[C@@H](O)[C@H]1O
a: < 50%

Continuing:
q: For the molecule OC[C@@H]1NCC[C@H](O)[C@H]1O , give its measured inhibition value.
a: < 50%

----------
Target: Tissue alpha-L-fucosidase (Bos taurus)
Conditions: 1000 uM
Below, each entry is listed alongside its reported inhibition.

See these solved cases before continuing.
q: For the compound OC[C@H]1NCC[C@@H](O)[C@@H]1O , report inhibition.
a: < 50%

q: Tell me its inhibition given OC[C@@H]1CNC[C@@H](O)[C@@H]1O as the entry.
a: < 50%

q: Give inhibition for OC[C@H]1NCC[C@@H](O)[C@H]1O
a: < 50%

q: Fill in reported inhibition for this entry: OC[C@H]1CNC[C@@H](O)[C@H]1O
a: < 50%

q: Answer with the recorded inhibition for the compound listed here: OC[C@@H]1CNC[C@H](O)[C@@H]1O
a: < 50%

q: Give the measured inhibition for OC[C@H]1CNC[C@@H](O)[C@@H]1O
a: < 50%

q: Supply recorded inhibition for OC[C@@H]1CNC[C@H](O)[C@H]1O here.
a: < 50%

q: Entry OC[C@H]1NCC[C@H](O)[C@@H]1O needs its inhibition filled in; supply it.
a: < 50%

q: Using known records, supply inhibition for OC[C@H]1CNC[C@H](O)[C@@H]1O
a: < 50%

q: Using the record for OC[C@@H]1NCC[C@H](O)[C@@H]1O , state its measured inhibition.
a: < 50%

Please turn your attention to the following entry.
q: Report inhibition, nothing else, for this compound: OC[C@H]1CNC[C@H](O)[C@H]1O
a: < 50%

----------
Assay: Inhibition of rat intestinal maltase
ASSAY_ENDPOINT: Ki (µM)
Output spec: scalar in µM, unitless text.

q: Using known records, supply Ki for OCC1(O)CNC[C@H]1O (single isomer, unassigned)
a: 6

----------
Experiment: Inhibition of coffee beans alpha-galactosidase assessed as production of p-nitrophenol by spectrophotometry
Design: species or system Coffea
ASSAY_ENDPOINT: pIC50
To interpret pIC50, take it as minus log10 of a concentration measured in moles per litre.

q: State its pIC50 for this compound: OC[C@@H]1CNC[C@H](O)[C@@H]1O
a: 3.35

q: Identify measured pIC50 associated with OC[C@H]1NC[C@H](O)[C@@H](O)[C@@H]1O
a: 3.06

q: Please give the documented pIC50 of OC[C@H]1NCC[C@@H](O)[C@H]1O
a: 5.10

---
q: Hello, please tell me recorded pIC50 for this one: OC[C@H]1CNC[C@@H](O)[C@H]1O
a: 3.84

Values compiled from ChEMBL document CHEMBL1817562.
